Recorded fluorescence slope for the following molecules
assay_system: Voltage-gated potassium channel subunit beta-2 (Rattus norvegicus) (UniProt P62483)
Sequence (P62483 whole entry, looked up): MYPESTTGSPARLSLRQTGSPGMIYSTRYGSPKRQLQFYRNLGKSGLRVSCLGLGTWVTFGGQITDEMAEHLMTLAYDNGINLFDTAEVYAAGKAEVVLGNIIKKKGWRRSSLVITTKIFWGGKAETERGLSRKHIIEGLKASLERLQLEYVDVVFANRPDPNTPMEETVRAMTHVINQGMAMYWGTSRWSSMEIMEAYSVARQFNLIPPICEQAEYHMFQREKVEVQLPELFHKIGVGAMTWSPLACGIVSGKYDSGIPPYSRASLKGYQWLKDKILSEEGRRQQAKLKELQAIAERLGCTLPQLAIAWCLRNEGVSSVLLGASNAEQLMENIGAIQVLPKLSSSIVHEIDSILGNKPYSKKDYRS
assay_name: inhibitors of rat Kvbeta2 reductase activity – biochemical, NADPH fluorescence, primary screen (AID 622);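 further: slope of raw intensity against log time taken from 70 to 1610 s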
condition_details: recombinant KvBeta, 4-cyanobenzaldehyde reduction, at 10 µM, active compounds read high

{"columns": ["molecule", "fluorescence slope"],
 "data": [
  ["CC1(C)CC(=O)C(C#N)=C(NCCCO)C1", -0.536],
  ["C/C=C/Cn1c(SCCCc2ccccc2)nc2c1c(=O)[nH]c(=O)n2C", -0.517],
  ["COc1ccc(Oc2c(C)oc3cc(OC(=O)N4CCOCC4)ccc3c2=O)cc1", -0.402],
  ["CN1CC=C2C(C#N)=C(N)C(C#N)(C#N)C(Cc3ccccc3)C2C1 (stereo unspecified)", -0.507],
  ["COc1ccc(NC(=O)CC2Sc3ncnn3C2=O)cc1 (stereo unspecified)", -0.567],
  ["COc1ccc(C(=O)c2ccc(OC)c(N)c2)cc1N", -0.465]
]}
